- Target: hKv7.2/Kv7.3 (M-channel) (Homo sapiens, UniProt O43525+O43526)
- Construct: expressed in transfected cells; host or cells: Xenopus laevis oocytes (cRNAs mixed 1:1)
- Assay text: Two-electrode voltage clamp, G(V) shift on human M-channel expressed in Xenopus laevis oocytes
- Type: cell-based
- Condition summary: concentration-response of G(V) shift, read-out: c1/2 (half-maximal concentration)
Measured parameter: pEC50
The read-out pEC50 is expressed as -log10 of concentration in moles per litre.

// pEC50 value for C[C@@]1(COS(=O)(=O)O)CCC[C@]2(C)c3cc(Cl)c(Cl)c(Cl)c3CC[C@@H]12 : 4.91

* * *

Measured G(V) shift, listed per entry for reference.
- Target: wt Shaker Kv channel (Shaker H4, Δ6-46) (Drosophila melanogaster, UniProt P08510, DEL6-46)
- Sequence (P08510 other isoform, or with tags, fused parts or gaps DEL6-46): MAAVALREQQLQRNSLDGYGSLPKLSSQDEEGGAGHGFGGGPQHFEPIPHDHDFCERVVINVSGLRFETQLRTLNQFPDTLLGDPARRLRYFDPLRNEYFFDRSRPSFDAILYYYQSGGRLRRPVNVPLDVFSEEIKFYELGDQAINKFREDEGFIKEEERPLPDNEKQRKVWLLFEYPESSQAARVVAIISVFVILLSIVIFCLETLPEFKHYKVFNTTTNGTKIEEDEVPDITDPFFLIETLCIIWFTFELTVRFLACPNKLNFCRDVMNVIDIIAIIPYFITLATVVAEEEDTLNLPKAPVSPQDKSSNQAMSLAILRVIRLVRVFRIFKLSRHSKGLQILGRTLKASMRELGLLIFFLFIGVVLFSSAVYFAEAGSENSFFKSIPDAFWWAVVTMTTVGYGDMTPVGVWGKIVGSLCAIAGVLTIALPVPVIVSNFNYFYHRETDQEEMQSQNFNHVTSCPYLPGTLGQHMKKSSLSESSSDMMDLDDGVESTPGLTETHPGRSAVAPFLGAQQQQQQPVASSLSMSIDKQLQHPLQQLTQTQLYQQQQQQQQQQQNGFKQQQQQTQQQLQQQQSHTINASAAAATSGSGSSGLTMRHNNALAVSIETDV
- Assay text: Two-electrode voltage clamp, G(V) shift on wt Shaker Kv channel expressed in Xenopus laevis oocytes
- Assay type: cell-based
- Condition summary: pH 7.4, 100 μM, mean
Numbers only; they are read as mV.

Example cases with answers are listed next.
CC(C)c1ccc2c(c1)CC[C@H]1[C@](C)(C(=O)N[C@@H](CC(=O)O)C(=O)O)CCC[C@]21C    −0.73
CC(C)c1ccc2c(c1)CC[C@H]1[C@](C)(C(=O)NCCS(=O)(=O)O)CCC[C@]21C    −2.48
CC(C)c1ccc2c(c1)CC[C@H]1[C@](C)(C(=O)NCCCS(=O)(=O)O)CCC[C@]21C    −4.18

Please look at the following compound next.
// G(V) shift value for CC(C)c1ccc2c(c1)CC[C@H]1[C@](C)(COP(=O)(O)O)CCC[C@]21C : −1.18

* * *

Measured pKa at 100 μM, listed per entry for reference.
- Target: 3R Shaker Kv channel (M356R/A359R) (Drosophila melanogaster, UniProt P08510, A359R/DEL6-46/M356R)
- Sequence (P08510 other isoform, or with tags, fused parts or gaps DEL6-46/M356R/A359R): as the sequence (P08510 other isoform, or with tags, fused parts or gaps DEL6-46) above, with M315R, A318R counted along it
- Assay text: in vitro
- Type: cell-based
- Condition summary: Drosophila, 100 μM, functional pH dependence, read-out: Functional pKa (pH where half of the maximum G(V) shift was achieved)

CC(C)c1ccc2c(c1)CC[C@H]1[C@](C)(C(=O)NCCS(=O)(=O)O)CCC[C@]21C    < 7.4

// pKa at 100 μM value for CC(C)c1ccc2c(c1)CCC1[C@](C)(/C=C/C(=O)O)CCC[C@]21C (some centres unmarked) : 6.8

// pKa at 100 μM value for CC(C)c1ccc2c(c1)CC[C@H]1[C@](C)(C(=O)O)CCC[C@]21C [DHAA, dehydroabietic acid] : 7.2

// pKa at 100 μM value for CC(C)c1ccc2c(c1)CCC1[C@](C)(CCC(=O)O)CCC[C@]21C (some centres unmarked) : 7.5

// pKa at 100 μM value for CC(C)c1ccc2c(c1)CCC1[C@](C)(CC(=O)O)CCC[C@]21C (some centres unmarked) : 7.3

* * *

- Target: 3R Shaker Kv channel (M356R/A359R) (Drosophila melanogaster, UniProt P08510, A359R/DEL6-46/M356R)
- Assay text: in vitro
- Assay type: cell-based
- Condition summary: pH 7.4, 100 μM, mean
Measured G(V) shift, listed per entry for reference.
Numbers only; they are read as mV.

Example cases with answers are listed next.
CC(C)c1ccc2c(c1)CC[C@H]1[C@](C)(C(=O)NCCC(=O)NCCC(=O)O)CCC[C@]21C [Wu153]    −2.54
CC(C)c1ccc2c(c1)CC[C@H]1[C@](C)(C(=O)NCCS(=O)(=O)O)CCC[C@]21C [Wu154]    −9.85
CC(C)c1ccc2c(c1)CC[C@H]1[C@](C)(COP(=O)(O)O)CCC[C@]21C [Wu162]    −11.80

Please look at the following compound next.
// G(V) shift value for CC(C)c1ccc2c(c1)CC[C@H]1[C@](C)(C(=O)N[C@@H](CC(=O)O)C(=O)O)CCC[C@]21C [Wu148] : −14.47

* * *

Measured G(V) shift, listed per entry for reference.
- Target: 3R Shaker Kv channel (M356R/A359R) (Drosophila melanogaster, UniProt P08510, A359R/DEL6-46/M356R)
- Assay text: in vitro
- Format: cell-based
- Condition summary: pH 10, 100 μM, mean
Numbers only; they are read as mV.

Example cases with answers are listed next.
CC(C)c1ccc2c(c1)CCC1[C@](C)(CCC(=O)O)CCC[C@]21C (some centres unmarked) [Wu179]    −22.83
CC(C)c1ccc2c(c1)CC[C@H]1[C@](C)(C(=O)N[C@@H](CC(=O)O)C(=O)O)CCC[C@]21C [Wu148]    −9.53
CC(C)c1ccc2c(c1)CC[C@H]1[C@](C)(COP(=O)(O)O)CCC[C@]21C [Wu162]    −8.93
CC(C)c1ccc2c(c1)CCC1[C@](C)(CC(=O)O)CCC[C@]21C (some centres unmarked) [Wu180]    −19.18
CC(C)c1ccc2c(c1)CC[C@H]1[C@](C)(C(=O)NCCC(=O)O)CCC[C@]21C [Wu152]    −5.20

// G(V) shift value for CC(C)c1ccc2c(c1)CC[C@H]1[C@](C)(C(=O)NCCCC(=O)O)CCC[C@]21C [Wu149] : −5.17

// G(V) shift value for CC(C)c1ccc2c(c1)CC[C@H]1[C@](C)(C(=O)NCC(=O)O)CCC[C@]21C [Wu117] : −5.27

// G(V) shift value for CC(C)c1ccc2c(c1)CCC1[C@](C)(/C=C/C(=O)O)CCC[C@]21C (some centres unmarked) [Wu176] : −17.10

* * *

- Target: 3R Shaker Kv channel (M356R/A359R) (Drosophila melanogaster, UniProt P08510, A359R/DEL6-46/M356R)
- Assay text: in vitro
- Type: cell-based
- Condition summary: pH 5.5, 100 μM, mean
Measured parameter: G(V) shift (mV)
Numbers only; they are read as mV.

Example cases with answers are listed next.
CC(C)c1ccc2c(c1)CCC1[C@](C)(/C=C/C(=O)O)CCC[C@]21C (stereo partly shown)    2.80
CC(C)c1ccc2c(c1)CC[C@H]1[C@](C)(C(=O)N[C@@H](CC(=O)O)C(=O)O)CCC[C@]21C    −13.30
CC(C)c1ccc2c(c1)CCC1[C@](C)(CCC(=O)O)CCC[C@]21C (stereo partly shown)    2.80

// G(V) shift value for CC(C)c1ccc2c(c1)CCC1[C@](C)(CC(=O)O)CCC[C@]21C (stereo partly shown) : 1.575

* * *

- Target: 3R Shaker Kv channel (M356R/A359R) (Drosophila melanogaster, UniProt P08510, A359R/DEL6-46/M356R)
- Assay text: cell-based
- Type: cell-based
- Condition summary: pH 7.4, concentration-response of G(V) shift, read-out: c1/2 (half-maximal concentration)
Measured parameter: EC50
Put down the number, then write its unit next to it.

// EC50 value for C[C@@]1(COS(=O)(=O)O)CCC[C@]2(C)c3cc(Cl)c(Cl)c(Cl)c3CC[C@@H]12 : 6.1 µM
